- experimentalSystem: T1, human TREM2 (human, UniProt Q9NZC2 19-174, limits assumed)
- T1 construct: also called triggering receptor expressed on myeloid cells 2
- T1 sequence: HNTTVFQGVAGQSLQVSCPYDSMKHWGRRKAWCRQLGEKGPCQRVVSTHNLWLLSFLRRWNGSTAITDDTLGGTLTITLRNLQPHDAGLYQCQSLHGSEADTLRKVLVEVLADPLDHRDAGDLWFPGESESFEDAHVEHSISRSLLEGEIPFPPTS
- testSummary: 2nd screen, 10 nM
The reader will find reported Binding Signal values listed item by item below.

Worked examples follow.
binder: V41 (antibody, V domains shown, also called 6E7 variant V41) VH: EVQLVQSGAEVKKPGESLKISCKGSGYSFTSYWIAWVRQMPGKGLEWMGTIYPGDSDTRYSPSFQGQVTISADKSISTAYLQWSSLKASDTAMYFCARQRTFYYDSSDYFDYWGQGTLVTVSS VL: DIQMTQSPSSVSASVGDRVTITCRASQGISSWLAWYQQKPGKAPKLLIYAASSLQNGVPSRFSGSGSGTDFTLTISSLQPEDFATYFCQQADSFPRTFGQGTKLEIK
Binding Signal: 1.72 fold over 6E7 parental antibody

binder: V26 (antibody, V domains shown, also called 6E7 variant V26) VH: EVQLVQSGAEVKKPGESLKISCKGSGYSFTSYWIGWVRQMPGKGLEWMGTIYPGDSDTRYSPSFQGQVTISADKSISTAYLQWSSLKASDTAMYFCARQRTMYYDSSDYFDAWGQGTLVTVSS VL: DIQMTQSPSSVSASVGDRVTITCRASQGISSWLAWYQQKPGKAPKLLIYAASSLQRGVPSRFSGSGSGTDFTLTISSLQPEDFATYFCQQADSYPRTFGQGTKLEIK
Binding Signal: 3.47 fold over 6E7 parental antibody

Pending binder:
Measured Binding Signal, V39 (antibody, V domains shown, also called 6E7 variant V39) VH: EVQLVQSGAEVKKPGESLKISCKGSGYSFGSYWIAWVRQMPGKGLEWMGIIYPGDSDTRYNPSFQGQVTISADKSISTAYLQWSSLKASDTAMYFCARGRTFYYDSSDYFDYWGQGTLVTVSS VL: DIQMTQSPSSVSASVGDRVTITCRASQGISSWLAWYQQKPGKAPKLLIYAASSLVNGVPSRFSGSGSGTDFTLTISSLQPEDFATYFCQQADSSPRTFGQGTKLEIK : 5.81 fold over 6E7 parental antibody
